- tested.target: Protein deacetylase HDAC6 (Homo sapiens)
- Sequence (Q9UBN7 whole entry): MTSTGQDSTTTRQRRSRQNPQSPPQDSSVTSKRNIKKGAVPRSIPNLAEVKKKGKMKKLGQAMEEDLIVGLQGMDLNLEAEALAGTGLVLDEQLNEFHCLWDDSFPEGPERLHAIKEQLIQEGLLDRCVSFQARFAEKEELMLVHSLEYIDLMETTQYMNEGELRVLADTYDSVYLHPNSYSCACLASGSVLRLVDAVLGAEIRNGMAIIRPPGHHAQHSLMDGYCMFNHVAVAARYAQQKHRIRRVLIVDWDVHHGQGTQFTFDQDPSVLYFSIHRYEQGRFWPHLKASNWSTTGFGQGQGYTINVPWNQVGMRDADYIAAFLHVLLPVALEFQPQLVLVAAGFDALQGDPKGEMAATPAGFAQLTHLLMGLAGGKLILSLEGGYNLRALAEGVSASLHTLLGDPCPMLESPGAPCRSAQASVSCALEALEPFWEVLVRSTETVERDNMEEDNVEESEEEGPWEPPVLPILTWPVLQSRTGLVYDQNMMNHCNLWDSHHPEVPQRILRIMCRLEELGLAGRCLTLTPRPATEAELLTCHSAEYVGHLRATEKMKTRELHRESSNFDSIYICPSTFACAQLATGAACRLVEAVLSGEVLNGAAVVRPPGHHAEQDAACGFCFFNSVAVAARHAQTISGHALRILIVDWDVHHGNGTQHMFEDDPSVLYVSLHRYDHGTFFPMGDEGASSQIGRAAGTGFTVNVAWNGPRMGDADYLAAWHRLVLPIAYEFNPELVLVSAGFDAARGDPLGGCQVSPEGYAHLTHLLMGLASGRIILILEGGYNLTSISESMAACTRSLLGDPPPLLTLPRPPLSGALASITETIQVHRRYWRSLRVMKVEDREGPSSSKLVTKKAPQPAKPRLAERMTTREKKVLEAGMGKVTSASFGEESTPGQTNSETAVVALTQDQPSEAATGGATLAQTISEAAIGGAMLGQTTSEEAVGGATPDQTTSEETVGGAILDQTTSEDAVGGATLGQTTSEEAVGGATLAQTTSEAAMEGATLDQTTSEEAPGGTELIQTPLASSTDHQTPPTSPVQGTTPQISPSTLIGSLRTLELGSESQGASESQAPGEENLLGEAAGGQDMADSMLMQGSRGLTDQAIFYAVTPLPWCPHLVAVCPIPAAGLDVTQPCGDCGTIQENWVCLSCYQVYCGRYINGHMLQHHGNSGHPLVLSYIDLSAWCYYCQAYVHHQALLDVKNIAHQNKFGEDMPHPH
- experiment: Inhibition of full length recombinant human N-terminal GST-tagged HDAC6 expressed in baculovirus-infected Sf9 insect cells using RHKK(Ac)AMC as substrate after 90 mins by fluorimeter
Assign a class from recorded Ki; defined classes: lower level = under 0.9 nM, middle level = from 0.9 nM up to 2 nM, upper level = 2 nM and over

# compound, class.name
measured = [
    ("CN1C(=O)C2c3c(n(Cc4ccc(C(=O)NO)cc4)c4ccccc34)CCN2C1=O (stereo unspecified)", "middle level"),
    ("CN1CN2Cc3c(c4ccccc4n3Cc3ccc(C(=O)NO)cc3)C(C2)C1=O (stereo unspecified)", "lower level"),
    ("CN1C(=O)C2CN(Cc3c2c2cc(OCc4ccccc4)ccc2n3Cc2ccc(C(=O)NO)cc2)C1=O (stereo unspecified)", "lower level"),
    ("COc1ccc2c(c1)c1c(n2Cc2ccc(C(=O)NO)cc2)CN2CC1C(=O)N(C)C2 (stereo unspecified)", "lower level"),
    ("O=C(NO)c1ccc(Cn2c3c(c4ccccc42)CCN2C(=O)CCCC32)cc1 (stereo unspecified)", "upper level"),
    ("O=C(/C=C/c1ccc(Cn2c3c(c4ccccc42)CCN2C(=O)CCCC32)cc1)NO (stereo unspecified)", "upper level"),
    ("CN1C(=O)C2CN(Cc3c2c2ccc4ccccc4c2n3Cc2ccc(C(=O)NO)cc2)C1=O (stereo unspecified)", "middle level"),
    ("CN1C(=O)C2CN(Cc3c2c2ccccc2n3Cc2ccc(/C=C/C(=O)NO)cc2)C1=O (stereo unspecified)", "upper level"),
    ("CN1C(=O)C2CN(Cc3c2c2ccccc2n3Cc2ccc(C(=O)O)cc2)C1=O (stereo unspecified)", "upper level"),
]
